Molecular target: T1, PTPRG, endogenous in H929 multiple myeloma cells (human, UniProt P23470 20-1445)
T1 construct: Native protein on H929 cells (flow cytometry, siRNA knockdown) and in H929 lysates (IP/MS); also called phosphatase receptor type γ
T1 sequence (P23470 20-1445 limits assumed): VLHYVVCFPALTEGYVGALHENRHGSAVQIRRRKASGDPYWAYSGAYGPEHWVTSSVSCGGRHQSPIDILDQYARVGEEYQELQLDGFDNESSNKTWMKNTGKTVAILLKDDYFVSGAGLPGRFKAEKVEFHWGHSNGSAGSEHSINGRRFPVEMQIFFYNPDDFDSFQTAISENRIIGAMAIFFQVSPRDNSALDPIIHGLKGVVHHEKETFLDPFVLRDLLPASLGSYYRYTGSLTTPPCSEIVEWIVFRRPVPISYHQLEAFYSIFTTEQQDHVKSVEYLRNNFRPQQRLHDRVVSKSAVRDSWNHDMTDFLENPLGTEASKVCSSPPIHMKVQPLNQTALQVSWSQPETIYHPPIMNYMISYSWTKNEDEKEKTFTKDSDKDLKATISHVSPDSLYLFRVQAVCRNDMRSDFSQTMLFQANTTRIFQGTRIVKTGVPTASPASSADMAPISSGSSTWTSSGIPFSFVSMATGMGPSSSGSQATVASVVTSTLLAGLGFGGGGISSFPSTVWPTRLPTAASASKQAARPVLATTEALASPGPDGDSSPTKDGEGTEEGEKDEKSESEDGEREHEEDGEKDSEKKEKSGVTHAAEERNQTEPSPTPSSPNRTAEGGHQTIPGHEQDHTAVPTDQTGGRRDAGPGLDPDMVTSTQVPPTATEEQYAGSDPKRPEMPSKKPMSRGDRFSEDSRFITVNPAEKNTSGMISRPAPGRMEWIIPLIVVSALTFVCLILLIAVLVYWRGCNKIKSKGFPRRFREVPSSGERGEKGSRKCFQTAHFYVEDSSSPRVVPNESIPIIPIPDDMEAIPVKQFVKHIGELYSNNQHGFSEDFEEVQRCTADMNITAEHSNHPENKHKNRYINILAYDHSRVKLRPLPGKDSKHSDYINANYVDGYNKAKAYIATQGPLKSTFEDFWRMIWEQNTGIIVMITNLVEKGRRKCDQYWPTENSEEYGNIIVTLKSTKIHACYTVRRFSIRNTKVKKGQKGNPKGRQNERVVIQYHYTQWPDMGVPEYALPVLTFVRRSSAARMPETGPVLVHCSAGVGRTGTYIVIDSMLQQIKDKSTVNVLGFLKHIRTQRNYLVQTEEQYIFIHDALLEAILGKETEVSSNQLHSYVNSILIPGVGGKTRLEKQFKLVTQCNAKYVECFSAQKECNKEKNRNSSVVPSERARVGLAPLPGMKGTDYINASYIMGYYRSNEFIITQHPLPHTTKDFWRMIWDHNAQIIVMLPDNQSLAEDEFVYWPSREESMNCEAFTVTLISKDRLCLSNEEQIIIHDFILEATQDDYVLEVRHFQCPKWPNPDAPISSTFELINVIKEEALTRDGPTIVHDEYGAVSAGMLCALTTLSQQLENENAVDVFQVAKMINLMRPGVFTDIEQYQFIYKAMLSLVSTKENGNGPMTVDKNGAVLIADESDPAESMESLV
Experiment: flow cytometry, H929 + ICAM1 siRNA; None 1.06
experimentalReadout: Cells stained (%)
Write the value in % as a bare number.

Entry HW-1 chimeric rabbit-human IgG1 LA/LA/PG (antibody, V domains shown, Fc-silenced (L234A/L235A/P329G) IgG1, lambda; Alexa Fluor 647-labeled in single-step flow cytometry; Prototype of cluster C-1) VH: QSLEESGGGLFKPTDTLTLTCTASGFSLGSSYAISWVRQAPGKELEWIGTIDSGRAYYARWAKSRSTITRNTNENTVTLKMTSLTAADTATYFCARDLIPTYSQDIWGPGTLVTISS VL: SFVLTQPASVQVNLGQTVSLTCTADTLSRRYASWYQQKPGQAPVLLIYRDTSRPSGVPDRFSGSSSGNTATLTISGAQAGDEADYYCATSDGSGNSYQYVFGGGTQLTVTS needs its Cells stained (%) filled in; supply it. 98.2
